Biological target: mouse VISTA (mVISTA) (Mus musculus, UniProt Q9D659)
Construct: expressed in transfected cells; host or cells: Human embryonic kidney 293T cells
Sequence (Q9D659 33-308): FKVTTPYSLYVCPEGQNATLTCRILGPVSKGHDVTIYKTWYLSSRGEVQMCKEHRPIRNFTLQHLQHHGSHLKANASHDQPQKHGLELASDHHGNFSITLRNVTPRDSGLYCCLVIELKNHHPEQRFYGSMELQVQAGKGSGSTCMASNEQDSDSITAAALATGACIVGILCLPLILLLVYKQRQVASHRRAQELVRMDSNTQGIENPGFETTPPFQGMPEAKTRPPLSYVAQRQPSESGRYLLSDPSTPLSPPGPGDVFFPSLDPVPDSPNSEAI
Test: Cell-Based Binding High-Content Assay For mVISTA (HC CBA mVISTA)
Conditions: 293T cells expressing mouse VISTA; competition with biotinylated peptide (2 nM); read-out: HC CBA mVISTA IC50
Positions of bridges follow the written chain, without caps; N, C: chain ends. Non-standard residues stand in square brackets, D forms with d. Residues, ends and D or L forms follow the SMILES beside them. Ahp(2) = CCCCC[C@H](N)C(=O)O; NHexGly = CCCCCCNCC(=O)O
Endpoint name: IC50 (nM)

{"Compound": "CCCCCCN1CC(=O)N[C@@H](Cc2ccc(O)cc2)C(=O)N[C@@H](C(C)C)C(=O)NCC(=O)N[C@@H](CCCNC(=N)N)C(=O)N[C@@H](CC(C)C)C(=O)N[C@@H](CCCCC)C(=O)N2CCC[C@H]2C(=O)N[C@@H](C(C)C)C(=O)N[C@@H](CO)C(=O)N[C@H](C(=O)NCC(N)=O)CSCC(=O)N[C@@H](Cc2ccccc2)C(=O)N[C@@H](Cc2ccc(O)cc2)C(=O)N[C@@H](CC(=O)O)C1=O [Example 1054] ({CH2CO}-FYD[NHexGly]YVGRL[Ahp(2)]PVSCG-NH2; thioether N-14)", "Assayed system": "mouse VISTA (mVISTA) (Mus musculus, UniProt Q9D659)", "Measurement unit": "nM", "Numeric readout": 29.7}

====

target: mouse VISTA (mVISTA) (Mus musculus); construct: expressed in transfected cells; host or cells: Human embryonic kidney 293T cells; experiment: Cell-Based Binding High-Content Assay For mVISTA (HC CBA mVISTA); details: read-out: HC CBA mVISTA IC50
Starred links: 1 amine or outer side, 2 acyl side, 3 side chain; linkers in the order of their positions; H or OH if unused. Positions of bridges follow the written chain, without caps; N, C: chain ends. Non-standard residues stand in square brackets, D forms with d. Residues, ends and D or L forms follow the SMILES beside them. ξ: configuration not given here. Phe(3-Me) = Cc1cccc(C[C@H](N)C(=O)O)c1; γGlu = O=C(O)[C@H](CCC(=O)[*:2])N[*:1]; Ahp(2) = CCCCC[C@H](N)C(=O)O; NHexGly = CCCCCCNCC(=O)O; Nle = CCCC[C@H](N)C(=O)O; Aun = NCCCCCCCCCCC(=O)O; ξS = NC(CO)C(=O)O
Endpoint name: IC50 (nM)

{"Compound": "CCCCCCN1CC(=O)N[C@@H](Cc2ccc(O)cc2)C(=O)N[C@@H](CC(C)C)C(=O)NCC(=O)N[C@@H](CCCNC(=N)N)C(=O)N[C@@H](CC(C)C)C(=O)N[C@@H](CCCCC)C(=O)N2CCC[C@H]2C(=O)N[C@@H](C(C)C)C(=O)N[C@@H](CO)C(=O)N[C@H](C(=O)N[C@@H](CCC(=O)NCCCCCCCCCCC(=O)O)C(=O)O)CSCC(=O)N[C@@H](Cc2ccccc2)C(=O)N[C@@H](Cc2ccc(O)cc2)C(=O)N[C@@H](CC(=O)O)C1=O [Example 2128] ({CH2CO}-FYD[NHexGly]YLGRL[Ahp(2)]PVSC[γGlu][Aun]-OH; thioether N-14)", "Endpoint name": "IC50", "Numeric readout": 30.1}
{"Compound": "CCCCCCN1CC(=O)N[C@@H](Cc2ccc(O)cc2)C(=O)N[C@@H](CCCC)C(=O)N[C@@H](CC(=O)O)C(=O)N[C@@H](CCCNC(=N)N)C(=O)N[C@@H](CC(C)C)C(=O)N[C@@H](CCCCC)C(=O)N2CCC[C@H]2C(=O)N[C@@H](C(C)C)C(=O)N[C@@H](CC(=O)O)C(=O)N[C@H](C(=O)NC(CO)C(N)=O)CSCC(=O)N[C@@H](Cc2ccccc2)C(=O)N[C@@H](Cc2cccc(C)c2)C(=O)N[C@@H](CC(=O)O)C1=O (some centres unmarked) [compound 1330] ({CH2CO}-F[Phe(3-Me)]D[NHexGly]Y[Nle]DRL[Ahp(2)]PVDC[ξS]-NH2; thioether N-14)", "Endpoint name": "IC50", "Numeric readout": 16.8}
